# TESTED_ON: POS-1 (Caenorhabditis elegans, UniProt G5EF15)
# Construct: 6-his tag (N); made in house; host or cells: E. coli BL21 (DE3) Gold
# Sequence (G5EF15 80-180): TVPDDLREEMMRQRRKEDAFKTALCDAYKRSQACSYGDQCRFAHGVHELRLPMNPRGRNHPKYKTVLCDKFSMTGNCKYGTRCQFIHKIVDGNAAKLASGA
# PROCEDURE_DETAILS: Fluorescence polarization screening of POS-1 binding to fluorescein-labeled BMF018 RNA
# EXPERIMENTAL_CONTEXT: 192 μM test compound; score = polarization relative to no-drug and no-protein controls; 0.25 = 75% inhibition; lowest score = greatest inhibition; read-out: POS-1 score
QUANTITY: remaining activity at 192 µM (%)
Report the value in % with no unit label.

Known remaining activity at 192 µM results, listed for orientation:
                                   molecule  value_reported
0                O=C(NC1CCCCCC1)c1ccc(I)cc1            3.98
1  O=C1NN(c2ccc(Cl)c(Cl)c2)C(=O)/C1=C/c1cccc(OC(=O)c2cccs2)c1            22.9
2  CCOC(=O)c1ccc(N2NC(=O)/C(=C/c3ccc(OC(=O)c4ccco4)c(OC)c3)C2=O)cc1            17.2

Input: Can you share its remaining activity at 192 µM? I mean this molecule: O=C(Nc1nnc[nH]1)c1ccccc1O
Output: 2.5

Input: Follow-up entry: CCOc1cc(C(NC(C)=O)c2cc([N+](=O)[O-])c3cccnc3c2O)ccc1O (centres unmarked)
Output: 12.3

====

Each entry below lists one item and its recorded remaining activity at 192 µM value.
# TESTED_ON: MEX-5 (Caenorhabditis elegans)
# Construct: The fragment of mex-5 containing the TZF domain (amino acids 236-350) was amplified; made in house; host or cells: Escherichia coli JM109
# Sequence (Q9XUB2 236-350): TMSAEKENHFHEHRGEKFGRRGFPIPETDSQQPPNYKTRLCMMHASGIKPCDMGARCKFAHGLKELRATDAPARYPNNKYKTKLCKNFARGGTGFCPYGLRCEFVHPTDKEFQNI
# PROCEDURE_DETAILS: Fluorescence polarization screening of MEX-5 binding to fluorescein-labeled TCR2 RNA
# EXPERIMENTAL_CONTEXT: 192 μM test compound; score = polarization relative to no-drug and no-protein controls; 0.25 = 75% inhibition; lowest score = greatest inhibition; read-out: MEX-5 score
Report the value in % with no unit label.

In [3]: df
Out[3]:
                                   molecule  value_reported
0        Cc1ccc(-n2c(-c3ccco3)n[nH]c2=S)cc1            13.1
1  Cc1n[nH]c(SCc2cccc(CSc3nc(C)n[nH]3)c2)n1            1.21
2  O=C(O)C1CCC(N2C(=O)c3c(Cl)c(Cl)c(Cl)c(Cl)c3C2=O)CC1 (centres unmarked)            10.6
3  COC(=O)c1ccccc1OC(=O)c1ccc2c(c1)C1C=CCC1C(C(=O)O)N2 (centres unmarked)           -10.3
4          CCS(=O)(=O)Nc1ccccc1NS(=O)(=O)CC            19.9

Input: Request the reported remaining activity at 192 µM associated with CCCn1c(NC(=S)Nc2ccccc2)nc2ccccc21
Output: 23.1

Input: And CCOC(=O)N1CCN(C(=S)Nc2ccc3nc(-c4ccccn4)c(-c4ccccn4)nc3c2)CC1 ?
Output: 21.4

Input: Now the molecule O=C(NC(=S)N(Cc1ccccc1)Cc1ccccc1)c1ccc([N+](=O)[O-])cc1
Output: 23.4

Input: Can you check COc1ccc(C(=O)NC(=S)Nc2ccc(C(=O)O)c(Cl)c2)cc1[N+](=O)[O-] next?
Output: 16.7

Input: What do you have for COc1ccc(Cl)cc1C(=O)Nc1ccc(S(=O)(=O)Nc2nccs2)cc1 ?
Output: 18.4

Input: Further, for Cc1ccc(C(=O)Nc2nc(-c3ccccc3)c(-c3ccccc3)o2)cc1 ?
Output: 22.5

Input: Now try O=[N+]([O-])c1cccc(S(=O)(=O)Nc2cc(Br)c(O)c3ccccc23)c1 .
Output: 9.23

Input: Similarly, Sc1nnc(COc2cccc(Br)c2)n1-c1ccccc1 ?
Output: 15.4

Input: Let us now turn to O=S(=O)(Nc1ccc(Cl)cc1O)c1ccccc1
Output: -1.58

Input: And what about the molecule O=C(Nc1nnc[nH]1)c1ccccc1O ?
Output: 9.13

Input: Another molecule: Sc1nnc(-c2cccs2)n1-c1ccccc1
Output: 3.52

Input: Do the same for O=[N+]([O-])c1cc(CN2CCC(c3ccccc3)C2)c(O)c2ncccc12 (centres unmarked) please
Output: 21.2

Input: Record: CCn1c(-c2cc(Br)ccc2O)n[nH]c1=S
Output: 13.4

Input: Also C=CCn1c(S)nnc1CCc1ccc(OC(C)C)cc1 ?
Output: 25.2

Input: And the next one, CCCCN1C(=O)/C(=c2\sc3nc(-c4ccccc4OC(C)=O)nn3c2=O)c2ccccc21 ?
Output: 1.62

Input: Another molecule: Oc1ccc(Br)cc1-c1n[nH]c(=S)n1Cc1ccccc1
Output: 21.7

Input: Likewise for COc1ccc(C(=O)Nc2nc(N3C(=O)c4ccccc4C3=O)n(-c3ccccc3)n2)cc1 ?
Output: 16.1

Input: // repeat for Sc1nnc(SCc2ccccc2Cl)s1 and report
Output: 25.2
